# protocol-text: Toxicity liver stage against HepG2, at 10uM
# Type: cell-based
# Design: test concentration 10 uM, cell line HepG2-A16-CD81EGFP
# condition-label: human, HepG2-A16-CD81EGFP cells; read-out: INHIBITION
Catalogue of cytotoxicity at 10 µM values
observation-type: cytotoxicity at 10 µM

O=c1[nH][nH]cc1-c1ccnc(NCCN2CCCC2)n1    2.89%
O=C(Cc1n[nH]c(-c2cncc(Br)c2)n1)NCc1ccccn1    -1.39%
O=C1CCC(=O)N1c1nn(Cc2c(F)cccc2Cl)cc1Cl    -11.3%
CCc1cc(NC(CCO)c2ccc(OC)cc2)n2nccc2n1 (stereo unspecified)    -30.4%
Cc1ncoc1C(=O)N1CC[C@@]2(C[C@H](NS(C)(=O)=O)CCO2)C1    -73%
CN1CCC(NC(=O)Cc2csc(C(C)(C)C)n2)CC1    -2.37%
O=C(Cc1ccc(S(=O)(=O)C(F)F)cc1)N1CCCC1    -13.5%
CSCC[C@H](N)C(=O)NCc1cc2n(n1)CCCN(C(=O)N(C)C)C2    9.8%
CC(C)N1CCc2c(CNC(=O)c3nccn3C)cncc2C1    -106%
CC(C)c1ocnc1C(=O)NC(c1nnc2n1CCNCC2)C(C)C (stereo unspecified)    -9.72%
COCC1c2c(cnn2CC2CC2)CCN1Cc1cccs1 (stereo unspecified)    -6.61%

* * *

# protocol-text: Toxicity liver stage against HepG2, at 10uM
# Format: cell-based
# Design: test concentration 10 uM, cell line HepG2-A16-CD81EGFP
# condition-label: human, HepG2-A16-CD81EGFP cells; read-out: INHIBITION
Catalogue of cytotoxicity at 10 µM values
observation-type: cytotoxicity at 10 µM (%)

CCCN1CCCn2nc(CNS(=O)(=O)c3cccc(C#N)c3)cc2C1    -2.96
COCc1c(Cl)cccc1NC(=O)CNC(=O)C(C)(C)C    -5.73
CCS(=O)(=O)N1C[C@H]2CN(Cc3ccc(OC)cc3)C(=O)[C@H]2C1    -1.34
Cc1ccc(CNCC2CCCn3ccnc32)s1 (stereo unspecified)    -15.1
CC(=O)N1CCC(N2CC[C@H](c3nc4cc(F)ccc4o3)C2)CC1    2.23
COCCN(C)C(=O)c1nc2c(s1)CCCN2c1ccc(C)nn1    -2.4
CCOc1cccc(CNc2ccccc2Cl)c1O    -2.52
CCN(CC)C(=O)CCNC(=O)c1c[nH]c2ccc(OC)cc12    1.86
CCc1nn(C)c2[nH]nc(NC(=O)c3cccnc3NC(C)C)c12    3.07
CSCc1nc(CNC(=O)c2cnn(C(C)C)c2)cs1    1.98
COc1ccc(CN2CCN(C(=O)N(C)C)[C@@H]3CS(=O)(=O)C[C@@H]32)cc1F    1.24

* * *

# protocol-text: Toxicity liver stage against HepG2, at 10uM
# Type: cell-based
# Design: test concentration 10 uM, cell line HepG2-A16-CD81EGFP
# condition-label: human, HepG2-A16-CD81EGFP cells; read-out: INHIBITION
Catalogue of cytotoxicity at 10 µM values
observation-type: cytotoxicity at 10 µM (%)

CN(C)c1cc(CNC(=O)c2cccc(F)c2)ccn1    -13.5
CC(Cn1ccnc1)NC(=O)NCCc1ccc(Cl)s1 (configuration not stated)    -12.4
COc1ccccc1N1CCN(C(=O)COc2c(C)occc2=O)CC1    -0.426
CCN1CC2(CCN(CC3COCCO3)CC2)OC1=O (configuration not stated)    -4.15
CC(C)CCC(=O)N(C)CC(=O)Nc1ccc(Br)cn1    -8.39
Cc1cnn(CC2CN(CCCS(=O)(=O)N(C)C)CCO2)c1 (configuration not stated)    -2.71
CCCc1cnc(C)nc1N1CCC2(CCCO2)CC1    -13.4
